- Organism: Rattus norvegicus
- Protocol Summary: Open TG-GATES - Regimen: Single
- Format: toxicity, organism-based, Sprague-Dawley
- Parameters: regimen Single, gender Male, age 6 weeks
- Details: in vivo, po, 0 mg/kg, 24 h, tissue Blood, route gavage, dose level Control
Field: Fbg. Provide a value for each of the compounds that follow.
Note: unit mg/dL is implicit; provide only the numeric part.

Consider the compound shown here: CC(C)NNC(=O)c1ccncc1 [IPRONIAZID] What is its recorded Fbg?
333.2

Consider the compound shown here: CCCc1cc(=O)[nH]c(=S)[nH]1 [PROPYLTHIOURACIL] What is its recorded Fbg?
211.2

Consider the compound shown here: Nc1c2c(nc3ccccc13)CCCC2 [TACRINE] What is its recorded Fbg?
295.8

----------
Field: Fbg. Provide a value for each of the compounds that follow.
- Species on record: Rattus norvegicus
- Protocol Summary: Open TG-GATES - Regimen: Daily Repeat
- Format: toxicity, organism-based, Sprague-Dawley
- Parameters: regimen Daily Repeat, gender Male, age 6 weeks
- Details: in vivo, po, 0 mg/kg, […], tissue Blood, route gavage, dose level Control, time 28 day
Note: unit mg/dL is implicit; provide only the numeric part.

Consider the compound shown here: CNC(=C[N+](=O)[O-])NCCSCc1ccc(CN(C)C)o1 What is its recorded Fbg?
223.8

Consider the compound shown here: NC1=NC(=O)C(c2ccccc2)O1 (stereo not given) What is its recorded Fbg?
268.4

Consider the compound shown here: O=C(OC[C@H]1O[C@@H](OC(=O)c2cc(O)c(O)c(OC(=O)c3cc(O)c(O)c(O)c3)c2)[C@H](OC(=O)c2cc(O)c(O)c(OC(=O)c3cc(O)c(O)c(O)c3)c2)[C@@H](OC(=O)c2cc(O)c(O)c(OC(=O)c3cc(O)c(O)c(O)c3)c2)[C@@H]1OC(=O)c1cc(O)c(O)c(OC(=O)c2cc(O)c(O)c(O)c2)c1)c1cc(O)c(O)c(OC(=O)c2cc(O)c(O)c(O)c2)c1 What is its recorded Fbg?
229

Consider the compound shown here: Cc1nnc2n1-c1ccc(Cl)cc1C(c1ccccc1Cl)=NC2 What is its recorded Fbg?
262.6

Consider the compound shown here: CN/C(=N/CCSCc1nc[nH]c1C)NC#N What is its recorded Fbg?
205.8

----------
- Organism: Rattus norvegicus
- Protocol Summary: Open TG-GATES - Regimen: Single
- Assay type: toxicity, organism-based, Sprague-Dawley
- Set-up: regimen Single, gender Male, age 6 weeks
- Details: in vivo, po, 0 mg/kg, 24 h, tissue Blood, route gavage, dose level Control
hey, just use TRUE if measured Ret is less than 9%, otherwise FALSE

is_below(Ret, 9%) for CS(=O)(=O)O.Cc1ccc(NC(=O)c2ccc(CN3CCN(C)CC3)cc2)cc1Nc1nccc(-c2cccnc2)n1 [IMATINIB MESYLATE] ?
FALSE

is_below(Ret, 9%) for Brc1ccccc1 [BROMOBENZENE] ?
TRUE

is_below(Ret, 9%) for O=C(OC[C@H]1O[C@@H](OC(=O)c2cc(O)c(O)c(OC(=O)c3cc(O)c(O)c(O)c3)c2)[C@H](OC(=O)c2cc(O)c(O)c(OC(=O)c3cc(O)c(O)c(O)c3)c2)[C@@H](OC(=O)c2cc(O)c(O)c(OC(=O)c3cc(O)c(O)c(O)c3)c2)[C@@H]1OC(=O)c1cc(O)c(O)c(OC(=O)c2cc(O)c(O)c(O)c2)c1)c1cc(O)c(O)c(OC(=O)c2cc(O)c(O)c(O)c2)c1 [TANNIC ACID] ?
FALSE

is_below(Ret, 9%) for Nc1c2c(nc3ccccc13)CCCC2 [TACRINE] ?
TRUE

is_below(Ret, 9%) for CC(C)NNC(=O)c1ccncc1 [IPRONIAZID] ?
TRUE
